- System: winter wheat (Triticum aestivum)
- protocol summary: Test C pre-/postemergence: winter wheat
- Type: in vivo
- condition set: Postemergence, 62 g ai/ha; scale 0 to 100 (0 no effect, 100 complete control)
- From the text: […] Treated plants and controls were maintained in a greenhouse for 13 to 15 days, after which time all species were compared to controls and visually evaluated. […]
The compounds listed here are annotated with their Plant response rating, Wheat.
Respond using a number only.

These recorded examples may help you get a feel for the data.
• Cc1nn(-c2ccc(C(F)(F)F)cc2)nc1Cc1ccnc(C(F)(F)F)c1 = 35
• Cc1nn(-c2ccc(C(F)(F)F)c(F)c2)nc1Cc1ccnc(C(F)(F)F)c1 = 20
• Cc1nn(-c2ccnc(C(F)(F)F)c2)nc1Cc1ccnc(C(F)(F)F)c1 = 15

Query compound follows.
QUERY: Find the measured Plant response rating, Wheat: item `CCc1nn(-c2ccc(F)cc2)nc1Oc1ccnc(C(F)(F)F)c1` , target or system winter wheat (Triticum aestivum).
RESULT: 5
